Assay: Acute toxicity test (limit test and range finding test), oral administration
Details: both, ICR, mouse, in vivo
MEASURED_PROPERTY: LD50 at 14 days

Previously resolved entries follow.
COMPOUND: C=CC(C)OC(=O)C1=C(C)NC(C)=C(C(=O)OCCOC)C1c1cccc([N+](=O)[O-])c1 (stereo not drawn) [Example 3]
RESULT_VALUE: > 5000 mg/kg
--
COMPOUND: C=C(C)COC(=O)C1=C(C)NC(C)=C(C(=O)OC)C1c1cccc([N+](=O)[O-])c1 (stereo not drawn) [Example 12]
RESULT_VALUE: 1000 mg/kg
--
COMPOUND: C=C(C)COC(=O)C1=C(C)NC(C)=C(C(=O)OCCN(C)Cc2ccccc2)C1c1cccc([N+](=O)[O-])c1 (stereo not drawn) [Example 8]
RESULT_VALUE: > 1000 mg/kg

Q. Which measured LD50 at 14 days value corresponds to C=CCOC(=O)C1=C(C)NC(C)=C(C(=O)OCC(=C)C)C1c1cccc([N+](=O)[O-])c1 (stereo not drawn) [Example 13] ?
A. > 5000 mg/kg

Q. Which measured LD50 at 14 days value corresponds to COC(=O)C1=C(C)NC(C)=C(C(=O)OCCN(C)Cc2ccccc2)C1c1cccc([N+](=O)[O-])c1 (stereo not drawn) [Nicardipine, reference compound] ?
A. < 700 mg/kg

Q. Which measured LD50 at 14 days value corresponds to C=CC(C)OC(=O)C1=C(C)NC(C)=C(C(=O)OCCN(C)Cc2ccccc2)C1c1cccc([N+](=O)[O-])c1 (stereo not drawn) [Example 1] ?
A. > 1000 mg/kg
